Where do these numbers come from? They come from ChEMBL document CHEMBL5316299.

# assayed_target: UniProt:O43175
# Sequence (O43175 whole entry): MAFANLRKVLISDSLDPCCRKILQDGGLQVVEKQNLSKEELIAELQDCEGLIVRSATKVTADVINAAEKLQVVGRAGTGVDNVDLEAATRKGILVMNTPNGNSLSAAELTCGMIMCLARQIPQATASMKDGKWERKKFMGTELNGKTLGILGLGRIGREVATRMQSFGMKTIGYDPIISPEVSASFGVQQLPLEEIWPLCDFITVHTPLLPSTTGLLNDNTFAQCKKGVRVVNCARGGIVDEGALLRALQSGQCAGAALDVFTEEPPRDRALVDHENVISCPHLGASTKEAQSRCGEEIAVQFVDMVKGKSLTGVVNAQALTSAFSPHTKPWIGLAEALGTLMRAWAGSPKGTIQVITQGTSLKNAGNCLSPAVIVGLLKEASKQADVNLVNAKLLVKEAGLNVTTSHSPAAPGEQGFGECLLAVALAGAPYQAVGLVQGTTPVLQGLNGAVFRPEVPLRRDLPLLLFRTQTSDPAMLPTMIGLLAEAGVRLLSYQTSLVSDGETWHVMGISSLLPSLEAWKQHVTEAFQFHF
# protocol_summary: Inhibition of PHGDH (unknown origin) preincubated for 30 mins followed by substrate addition and measured after 5 mins
pIC50: −log10 of the molar value.

structure	pIC50
CC(=O)c1cccc(NS(=O)(=O)c2ccc(C(=O)Nc3nc(-c4cccc(C)c4)cs3)cc2)c1	5.62
O=C(Nc1nc(-c2ccccc2)cs1)c1ccc(S(=O)(=O)Nc2ccccc2)cc1	5.19
O=C(Nc1nc(-c2ccccc2)cs1)c1ccc(S(=O)(=O)N2CCC(CCO)CC2)cc1	4.91
O=C(Nc1nc(-c2ccccc2)cs1)c1ccc(S(=O)(=O)Cl)cc1	4.73
CN1CCN(CCNS(=O)(=O)c2ccc(C(=O)Nc3nc(-c4ccccc4)cs3)cc2)CC1	4.94
O=C(Nc1nc(-c2ccccc2)cs1)c1ccc(S(=O)(=O)Nc2cccc(N3CCOCC3)c2)cc1	5.15
CN(C)CCNS(=O)(=O)c1ccc(C(=O)Nc2nc(-c3ccccc3)cs2)cc1	4.80
CC(=O)c1cccc(NS(=O)(=O)c2ccc(C(=O)Nc3nc(-c4ccc(F)cc4F)cs3)cc2)c1	5.17
COc1ccccc1-c1csc(NC(=O)c2ccc(S(=O)(=O)Nc3cccc(C(C)=O)c3)cc2)n1	5.66
CNC(=O)c1cccc(NS(=O)(=O)c2ccc(C(=O)Nc3nc(-c4ccccc4)cs3)cc2)c1	5.30
CC(=O)c1cccc(NS(=O)(=O)c2ccc(C(=O)Nc3nc(-c4cccc(F)c4)cs3)cc2)c1	5.55
O=C(Nc1nc(-c2ccccc2)cs1)c1ccc(S(=O)(=O)N2CCC(C(=O)O)CC2)cc1	4.89
O=C(O)Cc1cccc(NS(=O)(=O)c2ccc(C(=O)Nc3nc(-c4ccccc4)cs3)cc2)c1	5.10
CC(=O)c1cccc(NS(=O)(=O)c2ccc(C(=O)Nc3nc(-c4ccccc4)cs3)cc2)c1	5.27
CC(=O)c1cccc(NS(=O)(=O)c2ccc(C(=O)Nc3nc(-c4ccc(F)cc4)cs3)cc2)c1	5.59
O=C(Nc1nc(-c2ccccc2)cs1)c1ccc(S(=O)(=O)NCCN2CCOCC2)cc1	4.96
O=C(O)c1cccc(NS(=O)(=O)c2ccc(C(=O)Nc3nc(-c4ccccc4)cs3)cc2)c1	5.44
CC(=O)c1cccc(NS(=O)(=O)c2ccc(C(=O)Nc3nc(-c4ccc(F)c(F)c4)cs3)cc2)c1	4.76

###

# protocol_summary: Microsomal stability in mouse liver microsomes assessed as half life measured upto 60 mins by HPLC-MS/MS analysis
# Format: ADME, Microsome
assay_endpoint: half-life (min)

structure	data_value
CC(=O)c1cccc(NS(=O)(=O)c2ccc(C(=O)Nc3nc(-c4cccc(F)c4)cs3)cc2)c1	87.2
COc1ccccc1-c1csc(NC(=O)c2ccc(S(=O)(=O)Nc3cccc(C(C)=O)c3)cc2)n1	13.7
CC(=O)c1cccc(NS(=O)(=O)c2ccc(C(=O)Nc3nc(-c4cccc(C)c4)cs3)cc2)c1	2.5
COc1cccc(-c2csc(NC(=O)c3ccc(S(=O)(=O)Nc4cccc(C(C)=O)c4)cc3)n2)c1	0.85

###

# protocol_summary: Microsomal stability in human liver microsomes assessed as half life measured upto 60 mins by HPLC-MS/MS analysis
# Assay type: ADME, Microsome

structure	half-life / min
COc1cccc(-c2csc(NC(=O)c3ccc(S(=O)(=O)Nc4cccc(C(C)=O)c4)cc3)n2)c1	0.85
CC(=O)c1cccc(NS(=O)(=O)c2ccc(C(=O)Nc3nc(-c4cccc(F)c4)cs3)cc2)c1	106
CC(=O)c1cccc(NS(=O)(=O)c2ccc(C(=O)Nc3nc(-c4cccc(C)c4)cs3)cc2)c1	1
COc1ccccc1-c1csc(NC(=O)c2ccc(S(=O)(=O)Nc3cccc(C(C)=O)c3)cc2)n1	26

###

# protocol_summary: Oral bioavailability in ICR mouse at 3 mg/kg measured for 0.25 to 24 hrs by UPLC-MS/MS analysis
# Assay type: ADME, organism-based
# test_context: in vivo, time 0.25-24 hrs
assay_endpoint: bioavailability (%)

structure	data_value
CC(=O)c1cccc(NS(=O)(=O)c2ccc(C(=O)Nc3nc(-c4cccc(F)c4)cs3)cc2)c1	82

###

# protocol_summary: Microsomal stability in rat liver microsomes assessed as intrinsic clearance measured upto 60 mins by HPLC-MS/MS analysis
# Type: ADME, Microsome
# test_context: 1 h

structure	CLH
CC(=O)c1cccc(NS(=O)(=O)c2ccc(C(=O)Nc3nc(-c4cccc(C)c4)cs3)cc2)c1	2378.4 mL/min/g
CC(=O)c1cccc(NS(=O)(=O)c2ccc(C(=O)Nc3nc(-c4cccc(F)c4)cs3)cc2)c1	56.6 mL/min/g
COc1ccccc1-c1csc(NC(=O)c2ccc(S(=O)(=O)Nc3cccc(C(C)=O)c3)cc2)n1	838.8 mL/min/g
COc1cccc(-c2csc(NC(=O)c3ccc(S(=O)(=O)Nc4cccc(C(C)=O)c4)cc3)n2)c1	2500.2 mL/min/g

###

# System: MDA-MB-468
# protocol_summary: Antiproliferative activity against human MDA-MB-468 cells expressing PHGDH assessed as reduction in cell viability measured for 72 hrs by CCK-8 assay
# Type: functional, cell-based
# test_context: MDA-MB-468, 72 h
pIC50: −log10 of the molar value.
# reported pIC50; entries follow
assay_endpoint: pIC50

structure	assay_endpoint	bound_type	data_value
CC(=O)c1cccc(NS(=O)(=O)c2ccc(C(=O)Nc3nc(-c4cccc(F)c4)cs3)cc2)c1	pIC50	=	5.28
COC(=O)CS(=O)(=O)c1ccc([C@@H](CO)NC(=O)c2cc3c(Cl)cc(C)cc3n2C)cc1	pIC50	=	4.55
O=C(Nc1nc(-c2ccccc2)cs1)c1ccc(S(=O)(=O)Nc2cccc(CO)c2)cc1	pIC50	=	5.00
Cc1cc(C)nc(NS(=O)(=O)c2ccc(C(=O)Nc3nc(-c4ccccc4)cs3)cc2)n1	pIC50	=	4.52
O=C(O)Cc1cccc(NS(=O)(=O)c2ccc(C(=O)Nc3nc(-c4ccccc4)cs3)cc2)c1	pIC50	<	4.00
COc1cccc(-c2csc(NC(=O)c3ccc(S(=O)(=O)Nc4cccc(C(C)=O)c4)cc3)n2)c1	pIC50	=	5.32
CNC(=O)c1cccc(NS(=O)(=O)c2ccc(C(=O)Nc3nc(-c4ccccc4)cs3)cc2)c1	pIC50	=	4.82
O=C(Nc1nc(-c2ccccc2)cs1)c1ccc(S(=O)(=O)O)cc1	pIC50	<	4.00

###

# protocol_summary: Half life in ICR mouse at 1 mg/kg, iv measured for 0.05 to 24 hrs by UPLC-MS/MS analysis
# Format: ADME, organism-based
# test_context: in vivo, time 0.05-24 hrs

structure	half-life, h
CC(=O)c1cccc(NS(=O)(=O)c2ccc(C(=O)Nc3nc(-c4cccc(F)c4)cs3)cc2)c1	4.94

###

# Test system: MDA-MB-468
# protocol_summary: Antiproliferative activity against human MDA-MB-468 cells expressing PHGDH assessed as reduction in cell viability measured for 72 hrs by CCK-8 assay
# Assay type: functional, cell-based
# test_context: MDA-MB-468, 72 h
assay_endpoint: log10 IC50 (log10 of the value in µM)

structure	log10 IC50
CC(=O)c1cccc(NS(=O)(=O)c2ccc(C(=O)Nc3nc(-c4ccc(F)cc4)cs3)cc2)c1	1.07
CC(=O)c1cccc(NS(=O)(=O)c2ccc(C(=O)Nc3nc(-c4ccccc4F)cs3)cc2)c1	1.82
O=C(Nc1nc(-c2ccccc2)cs1)c1ccc(S(=O)(=O)Nc2ccccc2)cc1	1.06
CCOC(=O)c1sc(NC(=O)c2ccco2)c(SC#N)c1C	1.32
CC(=O)N1CCC(NS(=O)(=O)c2ccc(C(=O)Nc3nc(-c4ccccc4)cs3)cc2)CC1	1.86
CC(=O)c1cccc(NS(=O)(=O)c2ccc(C(=O)Nc3nc(-c4cccc(O)c4)cs3)cc2)c1	1.84
CC(=O)c1cccc(NS(=O)(=O)c2ccc(C(=O)Nc3nc(-c4cccc(C)c4)cs3)cc2)c1	0.48

###

# protocol_summary: Microsomal stability in mouse liver microsomes assessed as intrinsic clearance measured upto 60 mins by HPLC-MS/MS analysis
# Assay type: ADME, Microsome
# test_context: 1 h
assay_endpoint: CLH (mL/min/g)

structure	data_value
COc1ccccc1-c1csc(NC(=O)c2ccc(S(=O)(=O)Nc3cccc(C(C)=O)c3)cc2)n1	153
CC(=O)c1cccc(NS(=O)(=O)c2ccc(C(=O)Nc3nc(-c4cccc(F)c4)cs3)cc2)c1	24.1
CC(=O)c1cccc(NS(=O)(=O)c2ccc(C(=O)Nc3nc(-c4cccc(C)c4)cs3)cc2)c1	835.6
COc1cccc(-c2csc(NC(=O)c3ccc(S(=O)(=O)Nc4cccc(C(C)=O)c4)cc3)n2)c1	2471.9

###

Catalogue of CLH readings, one per entry.
# protocol_summary: Microsomal stability in human liver microsomes assessed as intrinsic clearance measured upto 60 mins by HPLC-MS/MS analysis
# Assay type: ADME, Microsome
# test_context: 1 h

structure	CLH / mL/min/g
COc1cccc(-c2csc(NC(=O)c3ccc(S(=O)(=O)Nc4cccc(C(C)=O)c4)cc3)n2)c1	2485.8
COc1ccccc1-c1csc(NC(=O)c2ccc(S(=O)(=O)Nc3cccc(C(C)=O)c3)cc2)n1	82
CC(=O)c1cccc(NS(=O)(=O)c2ccc(C(=O)Nc3nc(-c4cccc(F)c4)cs3)cc2)c1	19.8
CC(=O)c1cccc(NS(=O)(=O)c2ccc(C(=O)Nc3nc(-c4cccc(C)c4)cs3)cc2)c1	1589.7
